- Test system: Schistosoma mansoni
- assay.explanation: Antischistosomal activity against Schistosoma mansoni assessed as induction of parasite mortality after 24 hrs
- Assay type: functional
- Set-up: concentration or dose not given beside the values
Calls of active or inactive are those of the source. The calls are words filed in the database; no cut-off is given here.
property: Activity

Some solved cases for reference:
structure: N#Cc1c(-c2cccc(-c3no[n+]([O-])c3C#N)c2)no[n+]1[O-]
Activity: 100%

structure: N#Cc1c(-c2cccc(Cl)c2)no[n+]1[O-]
Activity: 64%

structure: O=C(O)c1c(-c2ccccc2)no[n+]1[O-]
Activity: inactive

structure: Cc1c(-c2ccccc2)no[n+]1[O-]
Activity: inactive

structure: NC(=O)c1c(-c2ccccc2)no[n+]1[O-]
Activity: 60%

structure: N#Cc1c(-c2cccc(Br)c2)no[n+]1[O-]
Activity: 100%

structure: N#Cc1c(-c2ccc(Cl)cc2)no[n+]1[O-]
Activity: 42%

structure: N#Cc1c(-c2ccco2)no[n+]1[O-]
Activity: 70%

structure: COc1ccccc1-c1no[n+]([O-])c1C#N
Activity: 40%

structure: N#Cc1c(-c2ccc(C(F)(F)F)cc2)no[n+]1[O-]
Activity: 64%

## Input Please report the recorded Activity for N#Cc1c(-c2ccc(F)cc2)no[n+]1[O-] .
## Output 72%

## Input // repeat for N#Cc1c(-c2cc(F)cc(-c3no[n+]([O-])c3C#N)c2)no[n+]1[O-] and report
## Output 78%

## Input // repeat for N#Cc1c(-c2ccc(Br)cc2)no[n+]1[O-] and report
## Output 100%

----------
- Tested on: Schistosoma mansoni
- assay.explanation: Antischistosomal activity against Schistosoma mansoni assessed as induction of parasite mortality after 24 hrs
- Type: functional
- Design: concentration or dose not given beside the values
Calls of active or inactive are those of the source. The rule behind the calls is not given here.
property: Activity

Some solved cases for reference:
structure: N#Cc1c(-c2cccs2)no[n+]1[O-]
target.or.system: Schistosoma mansoni
result: 25%
//
structure: N#Cc1c(-c2cccc(O)c2)no[n+]1[O-]
target.or.system: Schistosoma mansoni
result: inactive
//
structure: O=C(c1cccs1)c1no[n+]([O-])c1C(=O)c1cccs1
target.or.system: Schistosoma mansoni
result: inactive
//
structure: COc1cc(-c2no[n+]([O-])c2C#N)cc(OC)c1OC
target.or.system: Schistosoma mansoni
result: 40%
//
structure: N#Cc1c(C(=O)c2cccs2)no[n+]1[O-]
target.or.system: Schistosoma mansoni
result: inactive

## Input Please report the recorded Activity for Cc1ccc(-c2no[n+]([O-])c2C#N)cc1 .
## Output 50%

## Input // repeat for COc1cccc(-c2no[n+]([O-])c2C#N)c1 and report
## Output 7%

----------
- assay.explanation: Induction of nitric oxide release at 10 uM in presence of Schistosoma mansoni recombinant TGR
- Assay type: functional
property: Activity (%)
A number alone suffices; assume %.

structure: O=Cc1c(-c2ccccc2)no[n+]1[O-]
Activity / %: 1

## Input Please report the recorded Activity for N#Cc1c(-c2ccco2)no[n+]1[O-] .
## Output 2

## Input // repeat for N#Cc1c(-c2cccc(Br)c2)no[n+]1[O-] and report
## Output 2

----------
- target.or.system: Thioredoxin reductase 1, cytoplasmic (Rattus norvegicus)
- Sequence (O89049 whole entry): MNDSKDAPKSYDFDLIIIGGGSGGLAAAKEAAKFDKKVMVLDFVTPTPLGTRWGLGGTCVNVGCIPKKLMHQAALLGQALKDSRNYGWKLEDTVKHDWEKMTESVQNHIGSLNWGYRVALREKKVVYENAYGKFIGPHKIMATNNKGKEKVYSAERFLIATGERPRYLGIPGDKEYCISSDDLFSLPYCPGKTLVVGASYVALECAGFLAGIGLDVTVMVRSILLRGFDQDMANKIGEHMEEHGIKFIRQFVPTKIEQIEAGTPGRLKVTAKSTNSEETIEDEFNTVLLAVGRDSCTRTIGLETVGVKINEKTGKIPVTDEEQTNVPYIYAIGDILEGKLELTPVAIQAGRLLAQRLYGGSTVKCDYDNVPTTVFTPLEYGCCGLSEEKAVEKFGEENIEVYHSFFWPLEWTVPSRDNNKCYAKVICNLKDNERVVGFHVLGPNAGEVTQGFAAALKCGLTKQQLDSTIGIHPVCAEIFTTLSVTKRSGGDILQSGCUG
- assay.explanation: Inhibition of rat recombinant TrxR1 after 10 mins
IC50 by entry:

Some solved cases for reference:
structure: O=C(O)c1c(-c2ccccc2)no[n+]1[O-]
property: IC50
result: > 400 µM

structure: N#Cc1c(-c2cccc(C(F)(F)F)c2)no[n+]1[O-]
property: IC50
result: 250 µM

structure: COc1cc(-c2no[n+]([O-])c2C#N)cc(OC)c1OC
property: IC50
result: 150 µM

## Input Form entry - test system: Thioredoxin reductase 1, cytoplasmic (Rattus norvegicus); read-out: IC50; molecule: N#Cc1c(-c2cccc(Cl)c2)no[n+]1[O-]
## Output < 12.5 µM

## Input // repeat for N#Cc1c(-c2ccco2)no[n+]1[O-] and report
## Output 350 µM

## Input // repeat for N#Cc1c(-c2ccc(O)cc2)no[n+]1[O-] and report
## Output > 400 µM
